Data origin, for the record: patent US11396501B2

- systemName: CXCR4 (Homo sapiens, UniProt P61073)
- Sequence (P61073 whole entry): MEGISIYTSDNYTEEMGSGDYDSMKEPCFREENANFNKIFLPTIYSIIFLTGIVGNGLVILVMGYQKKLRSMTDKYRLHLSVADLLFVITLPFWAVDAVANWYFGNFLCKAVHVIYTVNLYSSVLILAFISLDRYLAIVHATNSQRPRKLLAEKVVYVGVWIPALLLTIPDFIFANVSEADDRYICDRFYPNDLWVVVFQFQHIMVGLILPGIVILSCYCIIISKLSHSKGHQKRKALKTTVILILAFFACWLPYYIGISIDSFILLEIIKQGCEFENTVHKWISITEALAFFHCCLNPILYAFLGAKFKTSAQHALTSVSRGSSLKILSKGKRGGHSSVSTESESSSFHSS
- procedureSummary: HPB-ALL CXCR4 competitive binding assay (12G5 binding assay)
- Set-up: HPB-ALL cells were maintained in RPMI-1640 (Gibico) supplemented with 10% FBS (Hyclone); endogenous in cells; host or cells: HPB-ALL cells
- details: HPB-ALL cells; competition with APC-conjugated anti-human CXCR4 clone 12G5 at its EC80; 4° C. for 3 h; FACS
measuredProperty: IC50 (nM)

molecule	outputUnit	assayResult
Cc1nc(CN(C)C2CCCc3cccnc32)c(F)c(N2CCN(C)CC2)n1 (centres unmarked)	nM	16
CSc1nc([C@H](C)N(C)[C@@H]2CCCc3cccnc32)cc(N2CCN(C)CC2)n1	nM	268

A. Cc1nc(CN2CCC[C@H]2c2ccccn2)cc(N2CCN(C)CC2)n1
B. CN(C)C1CCN(c2cc(CN(C)C3CCCc4cccnc43)ncn2)C1 (centres unmarked)
C. Cc1nc(CN(C)[C@H]2CCCc3cccnc32)cc(N2CCN(C)CC2CO)n1 (some centres unmarked)
# desc sort on IC50 across 3 molecules Labels, requested order.
A, B, C
(A: 144 nM, B: 94 nM, C: 32 nM)

---

- systemName: UniProt:P61073
- procedureSummary: HPB-ALL CXCR4 competitive binding assay (12G5 binding assay)
- Set-up: HPB-ALL cells were maintained in RPMI-1640 (Gibico) supplemented with 10% FBS (Hyclone); endogenous in cells; host or cells: HPB-ALL cells
- details: HPB-ALL cells; competition with APC-conjugated anti-human CXCR4 clone 12G5 at its EC80; 4° C. for 3 h; FACS
measuredProperty: IC50 (nM)

Example compounds with recorded IC50:
compound	systemName	assayResult
Cc1nc(CN(C)C(CCCNC(=O)OC(C)(C)C)c2ccccn2)cc(N2CCN(C)CC2)n1 (stereo not shown) [Compound A37]	UniProt:P61073	4430
CN1CCCN(c2cc(CN(C)C3CCCc4cccnc43)ncn2)CC1 (stereo not shown) [Compound A22]	UniProt:P61073	32
CCN(Cc1cc(N2CCN(C)CC2)nc(C)n1)[C@H]1CCCc2cccnc21 [Compound A58]	UniProt:P61073	19
CN1CCN(c2cc(CN(C)C3CCCc4cccnc43)ncn2)CC1 (stereo not shown) [Compound A1]	UniProt:P61073	45
Cc1nc(CN(C)c2cccc3cccnc23)cc(N2CCN(C)CC2)n1 [Compound D2]	UniProt:P61073	65
CCN(Cc1cc(N2CCN(C)CC2)nc(C)n1)C1CCCc2cccnc21 (stereo not shown) [Compound A57]	UniProt:P61073	21
CN1CCN(c2cc(CN(C)C3CCCc4cccnc43)nc(N3CCOCC3)n2)CC1 (stereo not shown) [Compound A14]	UniProt:P61073	2250
CCN(Cc1cc(N2CCN(C)CC2)nc(C)n1)C1c2ncccc2CCC12CC2 (stereo not shown) [Compound A44]	UniProt:P61073	296
Cc1nc(CN(C)[C@H]2CCCc3cccnc32)cc(N2CCC(N3CCN(C)CC3)CC2)n1 [Compound A74]	UniProt:P61073	100
Cc1nc([C@H]2CCCCN2[C@H]2CCCc3cccnc32)cc(N2CCN(C)CC2)n1 [Compound C6]	UniProt:P61073	3240

a. Cc1nc([C@H]2CC(F)(F)CN2[C@H]2CCCc3cccnc32)cc(N2CCN(C)CC2)n1 [Compound C19]
b. CN1CCN(c2cc(CN(C)C3CCCc4cccnc43)nc(N(C)CCO)n2)CC1 (stereo not shown) [Compound A15]
c. CSc1nc(CN(C)C2c3ncccc3CCC23CC3)cc(N2CCN(C)CC2)n1 (stereo not shown) [Compound A40]
d. Cc1nc(CN(C)[C@H]2CCCc3cccnc32)cc(N2CCN3CCC[C@@H]3C2)n1 [Compound A68]
Would you mind ranking these compounds by ascending IC50? Labels, requested order.
d, c, b, a

---

- systemName: CXCR4 (Homo sapiens)
- procedureSummary: FLIPR Tetra calcium mobilization assay
- Type: cell-based
- details: Human CD4+ T-Cells; CXCL12 added; FLIPR Calcium 4 assay kit
measuredProperty: IC50 (nM)

Example compounds with recorded IC50:
compound	IC50, nM
Cc1nc(CN(C)c2ccc(C)c3cccnc23)cc(N2CCN(C)CC2)n1 [Compound D16]	2.7
Cc1nc(CN2CCC[C@H]2c2ncccc2C)c(F)c(N2CCN(C)CC2)n1 [Compound C33]	1.1
Cc1nc(CN(C)c2cc(F)cc3cccnc23)cc(N2CCN(C)CC2CO)n1 (stereo not drawn) [Compound D52]	4.5
CN1CCN(c2cccc3nc(CN(C)c4cccc5cccnc45)cn23)CC1 [Compound D38]	0.18

P. Cc1nc(CN(C)c2cccc3cccnc23)cc(N2CCCN(C)CC2)n1 [Compound D3]
Q. CN1CCCN(c2cc(CN(C)C3CCCc4cccnc43)ncn2)CC1 (stereo not drawn) [Compound A22]
R. Cc1nc(CN(C)c2cc(S(C)(=O)=O)cc3cccnc23)cc(N2CCN(C)CC2)n1 [Compound D47]
# desc sort on IC50 across 3 compounds Labels, requested order.
R, Q, P

A. Cc1nc(CN(C)c2cccc3cccnc23)cc(N2CCC(N(C)C)C2)n1 (stereo not drawn) [Compound D7]
B. Cc1nc(CN(C)c2cc(Br)cc3cccnc23)cc(N2CCN(C)CC2)n1 [Compound D45]
C. Cc1nc(CN(C)c2nccc3cccnc23)cc(N2CCN(C)CC2)n1 [Compound D21]
D. Cc1nc(CN(C)c2c(NS(C)(=O)=O)ccc3cccnc23)cc(N2CCN(C)CC2)n1 [Compound D59]
E. Cc1nc(CN(C)[C@@H](C)c2ccccn2)c(CO)c(N2CCN3CCC[C@@H]3C2)n1 [Compound A86]
# desc sort on IC50 across 5 compounds Labels, requested order.
C, D, B, A, E
(C: 1580 nM, D: 450 nM, B: 3 nM, A: 0.75 nM, E: 0.13 nM)

---

- systemName: CXCR4 (Homo sapiens)
- procedureSummary: FLIPR Tetra calcium mobilization assay
- Format: cell-based
- details: Human CD4+ T-Cells; CXCL12 added; FLIPR Calcium 4 assay kit
measuredProperty: IC50 (nM)

Example compounds with recorded IC50:
compound	systemName	IC50 (nM)
Cc1nc(CN(C)c2cc(CO)cc3cccnc23)cc(N2CCN(C)CC2)n1	CXCR4 (Homo sapiens)	39
Cc1nc(CN(C)[C@H]2CCCc3cccnc32)c(C)c(N2CCN(C)CC2)n1	CXCR4 (Homo sapiens)	0.024
Cc1nc(CN(C)[C@H]2CCOc3cccnc32)cc(N2CCN(C)CC2)n1	CXCR4 (Homo sapiens)	0.032

1. Cc1cccnc1[C@@H]1CCCN1Cc1nc2cccc(N3CCN(C)CC3)n2c1CO
2. Cc1nc(CN(C)c2cc(F)cc3cccnc23)cc(N2CCN(C)C(CO)C2)n1 (centres unmarked)
3. Cc1nc(CN(C)c2cccc3cccnc23)c(Cl)c(N2CCN(C)CC2)n1
4. Cc1nc(CN(C)c2ncnc3cccnc23)cc(N2CCN(C)CC2)n1
5. CCc1nc(CN(C)c2cccc3cccnc23)cc(N2CCN(C)CC2)n1
Would you mind ranking these compounds by ascending IC50? Labels, requested order.
1, 5, 3, 2, 4

a. CN1CCN(c2cccc3nc(CN(C)c4cccc5cccnc45)c(CO)n23)CC1
b. Cc1nc(CN(CCCC(N)=O)c2cccc3cccnc23)cc(N2CCN(C)CC2)n1
Between the entries labeled a and b , whose measured IC50 is lower? Record your answer as the label of the chosen record.
a

---

- systemName: CXCR4 (Homo sapiens, UniProt P61073)
- procedureSummary: HPB-ALL CXCR4 competitive binding assay (12G5 binding assay)
- Set-up: HPB-ALL cells were maintained in RPMI-1640 (Gibico) supplemented with 10% FBS (Hyclone); endogenous in cells; host or cells: HPB-ALL cells
- details: HPB-ALL cells; competition with APC-conjugated anti-human CXCR4 clone 12G5 at its EC80; 4° C. for 3 h; FACS
- Description: HPB-ALL CXCR4 Competitive Binding Assay HPB-ALL cells were maintained in RPMI-1640 (Gibico) supplemented with 10% FBS (Hyclone). APC-conjugated anti-human CXCR4 was from Sungene. EC80 was first determined for 12G5 binding to CXCR4. Then the compounds for testing were added into 96-well plates serially diluted at a ratio of 1:3. […] Cell suspension was then added into the wells and with the addition of APC-conjugated anti-human CXCR4 clone 12G5 at its EC80 determined. […]
measuredProperty: IC50 (nM)

1. CN1CCN(c2cc(CN(C)C3CCCc4cccnc43)nc(N(C)C)n2)CC1 (centres unmarked)
2. CSc1nc([C@H]2CCCN2[C@H]2CCCc3cccnc32)cc(N2CCN(C)CC2)n1
3. CN1CCN(c2cc(CN(C)C3CCCc4cccnc43)nc(C3CC3)n2)CC1 (centres unmarked)
Give the ascending ranking of the items by reported IC50. Labels, requested order.
3, 2, 1
(3: 26 nM, 2: 93 nM, 1: 8000 nM)

1. Cc1nc(CN(C)[C@H](C)c2ccccn2)cc(N2CCN(C)CC2)n1
2. CO[C@@H]1C[C@H](c2cc(N3CCN(C)CC3)nc(C)n2)N([C@H]2CCCc3cccnc32)C1
Between the entries labeled 1 and 2 , whose measured IC50 is lower? Record your answer as the label of the chosen record.
2
(2: 82 nM, 1: 220 nM)
